# protocolDescription: Hepatocyte intrinsic clearance, rat
# Assay type: in vitro ADME
# studyConditions: hepatocytes
Would you kindly list hepatocyte CLint for each of these compounds?
One number for each entry, in µL/min/1e6 cells.

[[record]]
compound = "Cc1cc2nc(N[C@@H](C)c3ccccn3)nc(C(=O)N3CC[C@H](O)C3)c2s1 [Example Z282]"
resulttype = "hepatocyte CLint"
readoutnumber = 17.2

[[record]]
compound = "CNc1cc2nc(N[C@@H](C)c3cncc(F)c3)nc(C(=O)N3CCCC3)c2s1 [Example Z210]"
resulttype = "hepatocyte CLint"
readoutnumber = 51.7

[[record]]
compound = "CO[C@H]1CCN(C(=O)c2nc(N[C@@H](C)c3cncc(F)c3)nc3cc(C)sc23)C1 [Example Z301]"
resulttype = "hepatocyte CLint"
readoutnumber = 51.7

[[record]]
compound = "Cc1cc2nc(N[C@@H](C)c3cncc(F)c3)nc(C(=O)NC[C@@H](C)O)c2s1 [Example Z278]"
resulttype = "hepatocyte CLint"
readoutnumber = 43.3


State the recorded hepatocyte CLint for every item in the following list.
1. C[C@H](Nc1nc(C(=O)N2CC[C@H](CO)C2)c2sccc2n1)c1cncc(F)c1 [Example Z294]
2. Cc1cc2nc(N[C@@H](C)c3cccnc3)nc(C(=O)N3CC[C@@H](O)C3)c2s1 [Example Z281]
3. Cc1cc2nc(N[C@@H](C)c3cncc(F)c3)nc(C(=O)N3CC[C@H](O)C3)c2s1 [Example Z249]

-- reply
17.2
18.6
20.9

----------
# targetDesc: adenosine A2B receptor (Homo sapiens (Human), UniProt P29275)
# Sequence (P29275 whole entry): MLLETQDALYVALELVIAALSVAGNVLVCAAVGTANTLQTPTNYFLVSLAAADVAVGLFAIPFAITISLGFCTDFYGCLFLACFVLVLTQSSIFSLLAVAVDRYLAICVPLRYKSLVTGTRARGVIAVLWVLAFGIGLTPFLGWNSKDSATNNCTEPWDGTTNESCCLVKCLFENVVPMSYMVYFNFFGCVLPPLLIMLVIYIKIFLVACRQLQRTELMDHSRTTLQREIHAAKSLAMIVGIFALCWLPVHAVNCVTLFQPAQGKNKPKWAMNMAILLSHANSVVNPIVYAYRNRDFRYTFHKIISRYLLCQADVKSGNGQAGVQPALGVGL
# protocolDescription: Adenosine receptor activity assay (Table 1), A2B activity
# Type: biochemical
# studyConditions: A2A activity to the A2B activity; A2A/A2B
resultType: Ratio
Give bare numbers.

Reference set, count: 2
[[record]]
compound = "Cc1cc2nc(N[C@@H](C)c3cncc(F)c3)nc(C(=O)NCCC3CN(C(=O)OC(C)(C)C)C3)c2s1 [Example Z485]"
targetdesc = "adenosine A2B receptor (Homo sapiens (Human), UniProt P29275)"
resulttype = "Ratio"
readoutnumber = 8.16

[[record]]
compound = "C[C@H](Nc1nc(C(=O)NCCC2CCCC2)c2sccc2n1)c1ccccn1 [Example Z424]"
targetdesc = "adenosine A2B receptor (Homo sapiens (Human), UniProt P29275)"
resulttype = "Ratio"
readoutnumber = 1.46


State the recorded Ratio for every item in the following list.
1. Cc1cc2nc(N[C@@H](C)c3cncc(F)c3)nc(C(=O)N3CC(NC(=O)OCC(C)(C)C)C3)c2s1 [Example Z591]
2. C[C@H](Nc1nc(C(=O)N2CCN(C(=O)N(C)C)C2)c2sccc2n1)c1cncc(F)c1 [Example Z590]
3. C[C@H](Nc1nc(C(=O)N2CC[C@H](O)C2)c2sccc2n1)c1ccnc(F)c1 [Example Z407]
4. C[C@H](Nc1nc(C(=O)N2CC(NC(=O)C3CCOCC3)C2)c2sccc2n1)c1cncc(F)c1 [Example Z622]
5. Cc1cc2nc(N[C@@H](C)c3cncc(F)c3)nc(C(=O)N3CC(N(C)C(=O)OC(C)(C)C)C3)c2s1 [Example Z484]

-- reply
[0.14, 11.22, 8.11, 1.02, 4.16]

-- ask Dear colleague, I am looking for the recorded Ratio of the following compound: COc1cccc(CCNC(=O)c2nc(N[C@@H](C)c3ccccn3)nc3c(C)csc23)c1 [Example Z444]
-- reply 0.35
